Reported pest or weed control at 200 ppm values are given for each entry in this list.
Tested on: Pseudoperonospora cubensis
assay_notes: Test for controlling effect on downy mildew of cucumber
Type: in vivo
experimental_parameters: 168 h, 200 ppm spray, one day before inoculation, cucumber 2-leaf stage, read-out: Controlling effect (control of disease), Downy mildew of cucumber
property_name: pest or weed control at 200 ppm

>>> df
                                    compound                    property_name         val
 0                  N#Cc1c(OCC#CI)nsc1SC(F)F  pest or weed control at 200 ppm  95 to 100%
 1                   CCOc1snc(OCOCC#CI)c1C#N  pest or weed control at 200 ppm  95 to 100%
 2                      COc1nsc(OCC#CI)c1C#N  pest or weed control at 200 ppm  95 to 100%
 3                    COc1nsc(SCOCC#CI)c1C#N  pest or weed control at 200 ppm  95 to 100%
 4                COC(=O)Sc1snc(OCC#CI)c1C#N  pest or weed control at 200 ppm  95 to 100%
 5                   COCCSc1snc(OCC#CI)c1C#N  pest or weed control at 200 ppm   80 to 94%
 6                N#Cc1c(OCOCC#CI)nsc1SC(F)F  pest or weed control at 200 ppm  95 to 100%
 7  CC(OCC#CI)Sc1snc(OC(F)F)c1C#N (centres unmarked)  pest or weed control at 200 ppm  95 to 100%
 8                   CCOc1nsc(SCOCC#CI)c1C#N  pest or weed control at 200 ppm  95 to 100%
 9      CC(C)(C#CI)OCOc1nsc(S(C)(=O)=O)c1C#N  pest or weed control at 200 ppm  95 to 100%
10                     COc1nsc(OCCC#CI)c1C#N  pest or weed control at 200 ppm  95 to 100%

---

Reported pest or weed control at 200 ppm values are given for each entry in this list.
Test system: Rhizoctonia solani
assay_notes: Test for controlling effect on sheath blight of rice
Assay type: in vivo
experimental_parameters: 120 h, 200 ppm spray, 24 hours after inoculation, rice 4-leaf stage, five days after inoculation, read-out: Controlling effect (control of disease), Sheath blight of rice
property_name: pest or weed control at 200 ppm

                                    compound         val
 0                CCCCN(C)c1snc(OCC#CI)c1C#N   60 to 79%
 1  CC(OCC#CI)Sc1snc(OC(F)F)c1C#N (stereo not drawn)  95 to 100%
 2                   N#CCSc1snc(OCC#CI)c1C#N  95 to 100%
 3              CSc1snc(OCOC(C)(C)C#CI)c1C#N  95 to 100%
 4  CC(OCC#CI)Oc1nsc(SC(F)F)c1C#N (stereo not drawn)  95 to 100%
 5                      CSc1snc(OCC#CI)c1C#N   60 to 79%
 6                     CSc1snc(OCCC#CI)c1C#N  95 to 100%
 7                    CSc1snc(SCOCC#CI)c1C#N   60 to 79%
 8                  N#Cc1c(OCC#CI)nsc1SC(F)F   80 to 94%
 9                   COCCSc1snc(OCC#CI)c1C#N   80 to 94%
10  CCOc1snc(OCOC(C)C#CI)c1C#N (stereo not drawn)   80 to 94%
11                N#Cc1c(OCC#CI)nsc1N1CCOCC1   80 to 94%
12              N#Cc1c(SCOCC#CI)nsc1SCOCC#CI   80 to 94%
13                   CCSc1snc(OCOCC#CI)c1C#N   80 to 94%
14      CC(C)(C#CI)OCOc1nsc(S(C)(=O)=O)c1C#N  95 to 100%
15              CS(=O)(=O)c1snc(OCC#CI)c1C#N   80 to 94%
16                  CC(C)Sc1snc(OCC#CI)c1C#N   80 to 94%
17                    COc1nsc(SCOCC#CI)c1C#N  95 to 100%
18  C=CC[S+]([O-])c1snc(OCC#CI)c1C#N (stereo not drawn)  95 to 100%
19                COC(=O)Sc1snc(OCC#CI)c1C#N   60 to 79%
20               CC(=O)Oc1nsc(SCOCC#CI)c1C#N  95 to 100%
21                   CCOc1nsc(SCOCC#CI)c1C#N  95 to 100%
22            CCS(=O)(=O)c1snc(OCCC#CI)c1C#N  95 to 100%
23  CC(C#CI)OCOc1nsc(N(C)C)c1C#N (stereo not drawn)  95 to 100%

---

Test system: Aspergillus niger
assay_notes: Test for wood rotting-preventing effect (mycelium growth inhibition on malt extract agar)
Type: cell-based
experimental_parameters: 28° C.±2° C., 2 to 10 days, read-out: Rotting preventing effect (mycelium growth-inhibitory rate), ASN
Reported inhibition at 50 ppm values are given for each entry in this list.
property_name: inhibition at 50 ppm

                                    molecule         val
 0                N#Cc1c(OCOCC#CI)nsc1SC(F)F  95 to 100%
 1                N#Cc1c(OCC#CI)nsc1SC1CCCC1   60 to 79%
 2                    COc1nsc(SCOCC#CI)c1C#N  95 to 100%
 3                   CCOc1snc(OCOCC#CI)c1C#N  95 to 100%
 4                 C=CCSc1snc(SCOCC#CI)c1C#N  95 to 100%
 5                 CC(C)Sc1snc(OCCC#CI)c1C#N  95 to 100%
 6                 C=CCOc1nsc(SCOCC#CI)c1C#N  95 to 100%
 7                     CSc1snc(OCCC#CI)c1C#N  95 to 100%
 8                   CCOc1nsc(SCOCC#CI)c1C#N  95 to 100%
 9                      CSc1snc(OCC#CI)c1C#N   80 to 94%
10  CCOc1nsc(SC(C)OCC#CI)c1C#N (stereo not drawn)  95 to 100%
11           CCS(=O)(=O)c1snc(OCOCC#CI)c1C#N  95 to 100%

Where do these numbers come from? They come from patent US5578622A.
